Each item that follows carries a reported fold induction at 50 µM.
Tested on: E. coli
Test: AK assay 384-well format, Prestwick library screening
Assay type: cell-based, Escherichia coli
Details: Escherichia coli, 3 h; planktonic E. coli; 50 μM final drug concentration; cutoff for positive-scoring molecules 3-fold increase; read-out: AK-based Prestwick Library Screening Results, E. coli (increase in extracellular AK activity)
Counter-ions that a name gives are not always drawn.
# output: bare number, no unit

Lookup result for C[C@@H]1CCC[C@H](C)N1NC(=O)c1ccc(Cl)c(S(N)(=O)=O)c1 [Clopamide] ; measured fold induction at 50 µM: 0.8

Reported fold induction at 50 µM for CNCCCC12CCC(c3ccccc31)c1ccccc12 [Maprotiline hydrochloride] was 0.8

// recorded fold induction at 50 µM for C[C@]12C[C@H](O)[C@H]3[C@@H](CCC4=CC(=O)CC[C@@]43C)[C@@H]1CC[C@@H]2C(=O)CO : 0.9

Reported fold induction at 50 µM ( CNc1ncnc2c1ncn2[C@@H]1O[C@H](CO)[C@@H](O)[C@H]1O ) = 0.6

----------
Test system: K. pneumoniae
Assay: AK assay 384-well format, Prestwick library screening
Type: cell-based, Klebsiella pneumoniae
Conditions: Klebsiella pneumoniae, 3 h; 50 μM final drug concentration; planktonic; cutoff for positive 3-fold increase; read-out: AK-based Prestwick Library Screening Results, K. pneumoniae (fold increase in extracellular AK activity)
Where a name gives a salt, the structure may show the parent alone.
# fold induction at 50 µM annotations
Lab note: jot down the number only; don't add units.

Some entries whose results are on file:
Cc1c2ccncc2c(C)c2c1[nH]c1ccccc12 = 1
Cc1ccc(S(=O)(=O)NC(=O)NN2CC3CCCC3C2)cc1 (stereo not shown) [Gliclazide] = 1.2
Cc1cccc(CN2CCN(C(c3ccccc3)c3ccc(Cl)cc3)CC2)c1 (stereo not shown) [Meclozine dihydrochloride] = 0.9
NCc1ccccc1CC(=O)N[C@@H]1C(=O)N2C(C(=O)O)=C(CSc3nnnn3CC(=O)O)CS[C@H]12 [Ceforanide] = 3.1
COc1ccc(OC)c(C(O)C(C)N)c1 (stereo not shown) [Methoxamine hydrochloride] = 1

compound Fc1ccc(C(OCCN2CCN(CCCc3ccccc3)CC2)c2ccc(F)cc2)cc1 [GBR 12909 dihydrochloride] , fold induction at 50 µM observed: 1

Short answer for NC[C@H]1O[C@H](O[C@H]2[C@H](O)[C@@H](O[C@H]3O[C@H](CO)[C@@H](O)[C@H](N)[C@H]3O)[C@H](N)C[C@@H]2N)[C@H](N)C[C@@H]1O : fold induction at 50 µM was 2

Notebook: CCCN(CCC)S(=O)(=O)c1ccc(C(=O)O)cc1 , fold induction at 50 µM read as 1.1

CC1(C)O[C@@H]2C[C@H]3[C@@H]4C[C@H](F)C5=CC(=O)C=C[C@]5(C)[C@H]4[C@@H](O)C[C@]3(C)[C@]2(C(=O)CO)O1 [Flunisolide] has a reported fold induction at 50 µM of 0.5

Query c1ccc2[nH]c(-c3cscn3)nc2c1 yields fold induction at 50 µM of 0.4

----------
System: A. baumannii strain 98-37-09
Assay: AK assay 384-well format, Prestwick library screening
Type: cell-based, Acinetobacter baumannii
Settings: Acinetobacter baumannii, 983709, 3 h; planktonic A. baumannii; 50 μM final drug concentration; 384-well; cutoff for positive-scoring molecules 3-fold increase; read-out: AK-based Prestwick Library Screening Results: A. baumannii (increase in extracellular AK activity)
Structures can show the parent of a compound that is named as a salt.
value-type: fold induction at 50 µM
The response must contain the number and no unit.

c1ccc(CC2=NCCN2)cc1 [Tolazoline hydrochloride] = 1.3
CN(C)[C@@H]1C(O)=C(C(N)=O)C(=O)[C@@]2(O)C(O)=C3C(=O)c4c(O)cccc4[C@@](C)(O)[C@H]3[C@H](O)[C@@H]12 [Oxytetracycline dihydrate] = 5.3
CCN(CC)CCCC(C)Nc1c2ccc(Cl)cc2nc2ccc(OC)cc12 (stereo not drawn) [Quinacrine dihydrochloride dihydrate] = 1.3
O=C(O)CCC(=O)c1ccc(-c2ccccc2)cc1 = 1
CCOC(=O)NNc1nncc2ccccc12 [Todralazine hydrochloride] = 1.1
Clc1ccc(CCC(Cn2ccnc2)Sc2c(Cl)cccc2Cl)cc1 (stereo not drawn) [Butoconazole nitrate] = 2
CC#C[C@]1(O)CC[C@H]2[C@@H]3CCC4=CC(=O)CCC4=C3[C@@H](c3ccc(N(C)C)cc3)C[C@@]21C = 1.1
CC(C)NCC(O)COc1ccc(COCCOC(C)C)cc1 (stereo not drawn) [Bisoprolol fumarate] = 0.5

# input for lookup
Form: compound = CN(Cc1cnc2nc(N)nc(N)c2n1)c1ccc(C(=O)N[C@@H](CCC(=O)O)C(=O)O)cc1 [Methotrexate] ; fold induction at 50 µM = 1

Data origin: patent US10004701B2
